# Assayed target: Troponin I, cardiac muscle (Homo sapiens) + Troponin T, cardiac muscle (Homo sapiens) + Troponin C, slow skeletal and cardiac muscles (Homo sapiens) (UniProt P19429+P45379+P63316)
# Protocol description: cardiac RTF calcium sensitivity inhibitors, primary screen, biochemical, IANBD-TnC fluorescence, EC70 calcium (AID 493244);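 also: assay run at fixed EC70 calcium of 1.6 mM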
# Condition parameters: IANBD-labeled cardiac RTF, Ca2+ fluorescence; at 7.15 µM; active compounds read high
Among all 340,000 compounds or so, about 390 (0.11%) were called active. This excerpt belongs to a sample that is enriched for actives.
Value kind: inhibition

Examples with answers:
> print(dat)
                                   molecule     value.measured
1     O=C1C=C(c2ccc(Cl)cc2)C(=O)N1Nc1ccccc1  -3.83% (inactive)
2  Cc1ccc(NC(=O)C(C)OC(=O)C2CC3CCCC(C2)C3=O)cc1S(=O)(=O)N1CCOCC1 (stereo not given)  -1.77% (inactive)
3  O=C(O[C@@H]1[C@H](Cc2ccccc2)NS(=O)(=O)[C@H]2C[C@@H]3C=C[C@]12O3)c1ccccc1Br  -4.49% (inactive)
4  O=C(c1cccc(F)c1)N1CCN(c2ccc([N+](=O)[O-])c3cccnc23)CC1   12.4% (inactive)
5  NC1=NC(c2ccc([N+](=O)[O-])cc2)N(c2ccc(F)cc2)C(N)=N1 (stereo not given)   4.59% (inactive)

Q: I have this molecule here, C[C@]12c3[nH]c4ccc(Cl)cc4c3CCN1C(=O)[C@@H](CC(=O)NCCCn1ccnc1)C[C@@H]2C(=O)N1CCOCC1 , and I need its recorded inhibition.
Ans: -5.19% (inactive)

Q: What value of inhibition has been reported for the following molecule? COc1cc(OC)cc(C(=O)NCC(=O)OCC(=O)NC(C)CCc2ccccc2)c1 (stereo not given)
Ans: -1.01% (inactive)

---

# Assayed target: Troponin I, cardiac muscle (Homo sapiens) + Troponin T, cardiac muscle (Homo sapiens) + Troponin C, slow skeletal and cardiac muscles (Homo sapiens) (UniProt P19429+P45379+P63316)
# Protocol description: cardiac RTF calcium sensitivity inhibitors, primary screen, biochemical, IANBD-TnC fluorescence, EC70 calcium (AID 493244);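 also: assay run at fixed EC70 calcium of 1.6 mM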
# Condition parameters: IANBD-labeled cardiac RTF, Ca2+ fluorescence; at 7.15 µM
Hit rate of the full screen: of about 340,000 compounds, about 390 (0.11%) were called active.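 Rule for the calls: active = inhibition above the mean inhibition of all tested compounds plus 3 SD (cut at about 17% in these data); inactive = the rest.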 What follows is part of a selection rich in actives, with near analogues and random picks from the rest.
Field 'call' accepts 1 (active), 0 (inactive)

> print(dat)
                                   compound  qualitative.label
1  CCCCn1c(N)c(N(CC(C)C)C(=O)CSc2ccc([N+](=O)[O-])cc2)c(=O)[nH]c1=O                  0
2  CN(CC1CCCO1)S(=O)(=O)c1ccc(C(=O)Nc2ccc(F)cc2)cc1 (stereo unspecified)                  0
3                        N#CCCn1ncc2ccccc21                  0
4  Cc1ccc(CN2CC(C(=O)NNC(=O)Cn3ccc(C(F)(F)F)n3)CC2=O)cc1 (stereo unspecified)                  0
5  Cc1cc(NC(=O)CCC(=O)N(CC(=O)NC2CCCC2)c2ccc(F)cc2)no1                  0
6  CCOC(=O)C(C)Oc1cccc2c(=O)n(CC(=O)NCCc3ccc(OC)c(OC)c3)ccc12 (stereo unspecified)                  0
7  COc1ccc(-n2c(C)cc(C(=O)CN3C(=O)NC4(CCc5ccccc54)C3=O)c2C)cc1 (stereo unspecified)                  0
8  O=C1Nc2c(Br)cc(Br)cc2C1(O)N1CCOCC1 (stereo unspecified)                  0

Q: Answer briefly: the call reported for NS(=O)(=O)c1cccc(NC(=O)CC23CC4CC(CC(Br)(C4)C2)C3)c1 in this assay.
Ans: 0

Q: Hi, sorry to bother you, what did the test record for O=C(COC(=O)c1ccccc1SCC(=O)NC1CCCCC1)NC1CCCCC1 ?
Ans: 0

Q: Outcome logged for Cc1cc(NC(=O)CCC(=O)N(CC(=O)NCC2CCCO2)c2ccccc2C)no1 (stereo unspecified) in this assay:
Ans: 0

Q: Outcome? CCN1C(=O)/C(=C2\SC(N3CCCCC3)=NC2=O)c2ccccc21
Ans: 0

Q: Record request — test call for O=C(N[C@@H]1C/C=C\C[C@@H](CC(=O)N(CCO)Cc2ccccc2)C(=O)N[C@H](Cc2ccccc2)COC1=O)OCC1c2ccccc2-c2ccccc21
Ans: 0

Q: Kindly provide the recorded test outcome for the following compound: C=CCNC(=O)COC(=O)c1ccccc1C(=O)N(C)C1CCCCC1
Ans: 1

Q: Recorded call for O=C(NCc1ccccc1Cl)C1CCC(CNc2c(N3CCCCC3)c(=O)c2=O)CC1 (stereo unspecified) ?
Ans: 0

Q: What did the test return for CCCCOc1ccc(N(CC(=O)NCC2CCCO2)C(=O)CCC(=O)Nc2cc(C)ccn2)cc1 (stereo unspecified) ?
Ans: 0

Q: Status in this test for NC(=O)C1(N2CCCCC2)CCN(C(=O)c2ccc(C#Cc3ccccc3)o2)CC1 ?
Ans: 0

Q: State the result this test recorded for COc1ccc(CCC(=O)Nc2ccc(Cl)c(S(=O)(=O)N3CCOCC3)c2)cc1OC .
Ans: 0

Q: What did the test return for CCOC(=O)N1CCN(Cc2nc3cc(NC(=O)CC)ccc3n2CC)CC1 ?
Ans: 0

Q: Would you mind telling me which call this test gave O=C(Nc1ccc2c(c1)CCC2)c1cccc(S(=O)(=O)Nc2ccccc2Cl)c1 ?
Ans: 0

Q: What did this assay record as the result for Cc1nc2ccc(S(=O)(=O)NCC(=O)O)cc2s1 ?
Ans: 0
